settings: in DMAc, 318.15 K
readout.label: solubility (mole fraction)
Give the figure by itself; no unit, no explanation.

Entry under test: CN1COCN(Cc2cnc(Cl)s2)C1=N[N+](=O)[O-] . Its solubility (mole fraction) was 0.145

---

conditions: in 2-methoxyethanol, 318.15 K
readout.label: solubility (mole fraction)

Entry under test: CN1COCN(Cc2cnc(Cl)s2)C1=N[N+](=O)[O-] . Its solubility (mole fraction) was 0.0311

---

details: in acetonitrile, 323.15 K
readout.label: solubility (mole fraction)
Give the figure by itself; no unit, no explanation.

Entry under test: CN1COCN(Cc2cnc(Cl)s2)C1=N[N+](=O)[O-] . Its solubility (mole fraction) was 0.0422
